Entries and their measured pIC50 follow.
# SYSTEM: T1, biotin-labeled human PD-1 Fc protein (human, biotin-labeled (site not stated))
# T1 construct: also called PD-1-Fc-biotin
# TEST NAME: competition ELISA, antibody + biotin human PD-1-Fc on coated human PD-L1-Fc (competitor PD-L1-Fc)
pIC50: −log10 of the molar value.
ASSAY READOUT: pIC50

| BINDER | VALUE MEASURED |
| --- | --- |
| chimeric D2H3 antibody (antibody, human IgG1, kappa, V domains shown, Mouse variable domains cloned in frame to human IgG1 and kappa constant regions; also called chD2H3) VH: EVQLQQSGTVLARPGASVKMSCKSSGYTFTNYWMHWVKQRPGQGLEWIGAIFPRNSETNYNQKFKAKAKLTAVTSASTAYMEVSSLTSEDSAVYFCTRNRYGLDYWGQGTSVTVSS VL: DIVLTQSPGFLAVSLGQRATISCRASESVSLHGTRLMHWYHQKPGQPPKLLISLGSNLESGVPARFSGSGSETDFTLNIHPVEEEDAATYFCQQSIEDPWTFGGGTKLEIKR | 9.13 |
| mouse anti-PD-1 monoclonal antibody D2A4 (antibody, V domains shown, Mouse antibody purified from a hybridoma; also called Mouse D2A4; mouse D2A4) VH: EVKLVESGGGLVKPGGSLKLSCAASGFTFSSYTMSWVRQTPAKRLEWVATISGGGSNTYYPDSVKGRFTISRDNARNTLYLQMSSLRSEDTAMYYCARQAFYSNYWYFDVWGAGTTVTVSS VL: DIQMTQSPASQSASLGESVTITCLASQTIGTWLAWYQQTPGKSPQLLIYAATSLADGVPSRFSGSGSGTKFSFKISSLQAEDFASYYCQQVSSIPWTFGGGTKLEIR | 8.82 |
| chimeric D2A4 antibody (antibody, human IgG1, kappa, V domains shown, Mouse variable domains cloned in frame to human IgG1 and kappa constant regions; also called chD2A4; ChD2A4) VH: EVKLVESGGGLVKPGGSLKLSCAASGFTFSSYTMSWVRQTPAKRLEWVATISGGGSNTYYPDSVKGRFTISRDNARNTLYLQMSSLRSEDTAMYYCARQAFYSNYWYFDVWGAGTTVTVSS VL: DIQMTQSPASQSASLGESVTITCLASQTIGTWLAWYQQTPGKSPQLLIYAATSLADGVPSRFSGSGSGTKFSFKISSLQAEDFASYYCQQVSSIPWTFGGGTKLEIRR | 8.77 |
